Ki values by entry
- target or system: human α2δ-1 subunit of Cav2.2 calcium channel (Homo sapiens (Human), UniProt P54289)
- Sequence (P54289 25-1103): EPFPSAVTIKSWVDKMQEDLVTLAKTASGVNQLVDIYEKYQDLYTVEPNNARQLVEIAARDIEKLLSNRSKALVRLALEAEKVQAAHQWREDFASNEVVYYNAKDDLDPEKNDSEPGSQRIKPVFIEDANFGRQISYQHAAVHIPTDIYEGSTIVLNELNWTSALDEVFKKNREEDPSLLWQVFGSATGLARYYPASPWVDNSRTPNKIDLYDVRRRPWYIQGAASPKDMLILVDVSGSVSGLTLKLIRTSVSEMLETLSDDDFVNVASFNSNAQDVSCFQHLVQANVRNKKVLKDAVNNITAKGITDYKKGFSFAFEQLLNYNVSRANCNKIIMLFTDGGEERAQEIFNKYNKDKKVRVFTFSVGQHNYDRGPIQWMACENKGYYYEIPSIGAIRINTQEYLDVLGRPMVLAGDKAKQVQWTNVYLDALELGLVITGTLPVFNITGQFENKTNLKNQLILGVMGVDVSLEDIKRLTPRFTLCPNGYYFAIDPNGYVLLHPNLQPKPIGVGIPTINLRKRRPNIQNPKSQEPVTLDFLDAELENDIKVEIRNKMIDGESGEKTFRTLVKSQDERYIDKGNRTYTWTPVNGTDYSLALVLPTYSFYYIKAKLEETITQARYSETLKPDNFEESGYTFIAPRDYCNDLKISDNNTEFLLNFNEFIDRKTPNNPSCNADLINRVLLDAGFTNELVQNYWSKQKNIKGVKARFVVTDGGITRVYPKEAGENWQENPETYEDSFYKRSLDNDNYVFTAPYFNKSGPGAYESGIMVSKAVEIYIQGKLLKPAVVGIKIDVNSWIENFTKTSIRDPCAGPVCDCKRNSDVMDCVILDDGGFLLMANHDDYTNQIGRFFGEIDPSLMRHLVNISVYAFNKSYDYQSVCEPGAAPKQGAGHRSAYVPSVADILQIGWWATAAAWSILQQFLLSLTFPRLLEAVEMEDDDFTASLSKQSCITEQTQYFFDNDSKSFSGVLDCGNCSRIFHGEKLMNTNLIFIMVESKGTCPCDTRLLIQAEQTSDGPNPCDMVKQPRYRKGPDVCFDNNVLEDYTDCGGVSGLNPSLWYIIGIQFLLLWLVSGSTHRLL
- test summary: Binding assay to human α2δ-1 subunit of Cav2.2 calcium channel ([3H]-Gabapentin)
- test conditions: binding to α2δ-1, [3H]-Gabapentin; read-out: Ki (nM) α2δ-1

Worked cases, Ki given:
# compound, target or system, Ki
rows = [
    ("CCNc1ncc2c(n1)N(C)CCN(c1cccc(C3CCNCC3)c1)C2=O", "human α2δ-1 subunit of Cav2.2 calcium channel (Homo sapiens (Human), UniProt P54289)", "100 to 500 nM"),
    ("CNCCC(Oc1cccc(N2CCN(C)c3cc(C)ncc3C2=O)c1)c1cccs1 (centres unmarked)", "human α2δ-1 subunit of Cav2.2 calcium channel (Homo sapiens (Human), UniProt P54289)", "100 to 500 nM"),
    ("CCNc1ncc2c(n1)N(C)CCN(c1cccc(-n3cc(CNC(=O)OC(C)(C)C)nn3)c1)C2=O", "human α2δ-1 subunit of Cav2.2 calcium channel (Homo sapiens (Human), UniProt P54289)", "> 3000 nM"),
    ("CNCCC(OCc1ccc(CN2CCN(C)c3nc(SC)ncc3C2=O)cc1)c1ccccc1 (centres unmarked)", "human α2δ-1 subunit of Cav2.2 calcium channel (Homo sapiens (Human), UniProt P54289)", "> 3000 nM"),
    ("CCNc1ncc2c(n1)N(C)CCN(c1cccc(OC3CCN(Cc4ccccc4)C3)c1)C2=O (centres unmarked)", "human α2δ-1 subunit of Cav2.2 calcium channel (Homo sapiens (Human), UniProt P54289)", "100 to 500 nM"),
]

Can you look up the measured Ki of CNCC(Oc1ccccc1N1CCN(C)c2nc(SC)ncc2C1=O)c1ccccc1 (centres unmarked) for me?
> 3000 nM

# iterate: CCNc1ncc2c(n1)N(C)CCN(c1cccc(CO[C@@H](CCN(C)C(=O)OC(C)(C)C)c3cccs3)c1)C2=O
> 3000 nM

# iterate: CCNc1ncc2c(n1)N(C)CCN(c1cccc(COC3(c4ccccc4)CCN(C)CC3)c1)C2=O
500 to 3000 nM

# iterate: CSc1ncc2c(n1)N(C)CCN(c1cccc(CCO)c1)C2=O
> 3000 nM

###

- target or system: human norepinephrine transporter (NET) (Homo sapiens (Human), UniProt P23975)
- Sequence (P23975 whole entry): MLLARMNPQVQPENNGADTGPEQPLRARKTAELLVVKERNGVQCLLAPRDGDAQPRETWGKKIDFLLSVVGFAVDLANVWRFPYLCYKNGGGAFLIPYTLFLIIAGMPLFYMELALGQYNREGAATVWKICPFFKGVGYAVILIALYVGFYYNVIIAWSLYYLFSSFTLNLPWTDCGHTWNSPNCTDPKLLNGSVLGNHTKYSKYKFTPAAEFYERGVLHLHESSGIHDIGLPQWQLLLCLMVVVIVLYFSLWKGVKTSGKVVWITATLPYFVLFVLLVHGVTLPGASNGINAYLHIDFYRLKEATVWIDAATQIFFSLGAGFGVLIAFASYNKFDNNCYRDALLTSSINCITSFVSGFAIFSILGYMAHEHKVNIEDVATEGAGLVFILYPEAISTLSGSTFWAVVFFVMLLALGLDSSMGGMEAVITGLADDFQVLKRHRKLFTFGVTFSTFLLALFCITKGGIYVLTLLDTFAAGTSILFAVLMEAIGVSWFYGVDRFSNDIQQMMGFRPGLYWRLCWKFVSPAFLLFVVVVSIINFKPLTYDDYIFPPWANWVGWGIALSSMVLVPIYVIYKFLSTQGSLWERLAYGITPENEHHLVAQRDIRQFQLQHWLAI
- test summary: Binding assay to human norepinephrine transporter (NET) ([3H]-Nisoxetin)
- test conditions: Table 2, dual compounds; [3H]-Nisoxetin binding
endpoint: Ki

# compound, Ki
measured = [
    ("CNCC[C@H](Oc1ccc(CN2CCN(C)c3ncncc3C2=O)cc1)c1ccccc1", "< 100 nM"),
]

Given the entry CNCCC(Oc1ccc(CN2CCN(C)c3nc(OC)ncc3C2=O)cc1)c1sccc1C (stereo not shown) , what Ki was observed with human norepinephrine transporter (NET) (Homo sapiens (Human), UniProt P23975)?
< 100 nM

# iterate: CCNc1ncc2c(n1)N(C)CCN(c1cccc(-n3cc(CNCC4CC4)nn3)c1)C2=O
100 to 500 nM

# iterate: CCNc1ncc2c(n1)N(C)CCN(c1cccc(-n3cnc(CN(C)CCc4ccccc4)c3)c1)C2=O
500 to 1000 nM

###

- target or system: human α2δ-1 subunit of Cav2.2 calcium channel (Homo sapiens (Human))
- test summary: Binding assay to human α2δ-1 subunit of Cav2.2 calcium channel ([3H]-Gabapentin)
- test conditions: Table 2, dual compounds; [3H]-Gabapentin binding; read-out: Ki (nM) α2δ-1
Ki values by entry

Worked cases, Ki given:
# molecule, Ki
records = [
    ("CNCCC(Oc1cccc(N2CCN(C)c3nc(SC)ncc3C2=O)c1)c1ccccc1 (centres unmarked) [Example 151]", "500 to 3000 nM"),
    ("CCNc1cc2c(cn1)C(=O)N(Cc1ccc(O[C@@H](CCNC)c3cccs3)cc1)CCN2C [Example 383]", "100 to 500 nM"),
    ("CNCC[C@@H](OCc1cccc(N2CCN(C)c3nc(SC)ncc3C2=O)c1)c1cccs1 [Example 209]", "100 to 500 nM"),
    ("CNCCC(Oc1ccc(CN2CCN(C)c3nc(OC)ncc3C2=O)cc1)c1sccc1C (centres unmarked) [Example 388]", "> 3000 nM"),
    ("CNCCC(Oc1ccc(N2CCN(C)c3nc(SC)ncc3C2=O)cc1)c1ccccc1 (centres unmarked) [Example 316]", "> 3000 nM"),
    ("CNCCC(OCc1cccc(N2CCN(C)c3nc(C(F)(F)F)ncc3C2=O)c1)c1cccs1 (centres unmarked) [Example 330]", "500 to 3000 nM"),
]

Can you look up the measured Ki of CCNc1ncc2c(n1)N(C)CCN(c1cccc(C3CCN(CCc4ccccc4)CC3)c1)C2=O [Example 261] for me?
100 to 500 nM

# iterate: CCNc1ncc2c(n1)N(C)CCN(c1cccc(OC(CCNC)c3cccnc3)c1)C2=O (centres unmarked) [Example 194]
500 to 3000 nM
